Measured growth inhibition by item
assay: NCI Yeast Anticancer Drug Screen. Data for the rad52 strain (AID 147);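 further: 0% = growth of vehicle-treated control cultures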; conditions: S. cerevisiae rad52 mutant growth inhibition; at 100.0 µM; active compounds read high
About 79,000 compounds went through this panel and 15% of them were active in at least one assay; those are over-represented in the sample as a whole.
Express your answer in %, writing the number without its unit.

compound | result.units | growth inhibition
O=C(NNC(=O)OCC(Cl)(Cl)Cl)OCC(Cl)(Cl)Cl | % | 31
CC1CCC2(NC1)OC1CC3C4CCC5CC(OC6OC(CO)C(OC7OC(CO)C(O)C(OC8OCC(O)C(O)C8O)C7OC7OC(CO)C(O)C(O)C7O)C(O)C6O)CCC5(C)C4CCC3(C)C1C2C (stereo unspecified) | % | 76
C[C@]12CCC3[C@@H](CC[C@@H]4c5nonc5CC[C@]34C)C1CCC2=O (stereo partly specified) | % | 85
CC1(Cl)CC(C)(/C=C/Cl)C(Cl)CC1Cl (stereo unspecified) | % | 43
C[C@@]12CCC(=O)C=C1CC[C@H]1C2=CC[C@]2(C)C1CC[C@@]2(C)O (stereo partly specified) | % | 91

(Q) Request the reported growth inhibition associated with OCC(O)C(O)CO (stereo unspecified) (tested in a mixture with another compound)
(A) 8

(Q) And the next one, CS(=O)(=O)OCCN(CCOS(C)(=O)=O)c1ccc(C=O)cc1 ?
(A) 91

(Q) And the next one, C[C@]12CCC(=O)C=C1CC[C@@H]1C2CC[C@@]2(C)C1CC[C@@H]2OC(=O)C12OC1CCC2=O (stereo partly specified) ?
(A) 96

###

assay: NCI Yeast Anticancer Drug Screen. Data for the bub3 strain (AID 167); conditions: S. cerevisiae bub3 mutant strain, at 11.0 µM
About 79,000 compounds went through this panel and 15% of them were active in at least one assay; those are over-represented in the sample as a whole. The source made the active and inactive calls. Cut-off read from the data, not from the text of the source: active = growth inhibition above about 70%; inactive = the rest.
Outcome field: choose from active, inactive

Some entries whose results are on file:
compound | class.name
O=C(O)C1C2CCC(C2)C1c1ccccc1 (configuration not stated) | inactive
O=C1c2ccccc2C(=O)C(Cl)C1Cl (configuration not stated) | active
CNCC(O)c1ccc(O)c(O)c1.[Pt].c1ccc([PH+](c2ccccc2)c2ccccc2)cc1.c1ccc([PH+](c2ccccc2)c2ccccc2)cc1 | inactive
O=C(O)C1C2C=CC(C2)C1c1ccccc1 (configuration not stated) | inactive
CCOC(=O)C1=C(C(=O)OCC)C2(c3ccccc3)N(O1)c1ccccc1C2(C)C (configuration not stated) | inactive

(Q) Called result for CC1=C(N2CC2)C(=O)c2ccccc2C1=O
(A) inactive

(Q) And the next one, O=S(=O)(O)/C(=C\c1ccccc1)c1ccccc1 (tested in a mixture with another compound) ?
(A) inactive

(Q) And the next one, COC(=O)C1C2c3ccccc3C(c3ccccc32)C1C(=O)OC (configuration not stated) ?
(A) inactive

(Q) And the next one, OC1(c2ccccc2)CC2CCC(C1)N2CCCC(O)(c1ccccc1)c1ccccc1 (configuration not stated) ?
(A) inactive

###

experiment: NCI Yeast Anticancer Drug Screen. Data for the mlh1 strain (AID 171);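 further: 0% = growth of vehicle-treated control cultures of the same strain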; conditions: S. cerevisiae mlh1 strain growth inhibition; at 33.0 µM; active compounds read high
Compounds without any hit were thinned out: in the full panel of roughly 79,000, 15% have a hit.
Measured growth inhibition by item
Express your answer in %, writing the number without its unit.

molecule | readout.value
Nc1nc(N)c2c(Cl)c(CNc3ccc(C(=O)NC(CC(=O)O)C(=O)O)cc3)ccc2n1 (stereo unspecified) | 25
Cc1nc2ccccc2cc1C[N+]12CN3CN(CN(C3)C1)C2 | 4
CC[C@]1(O)CC(OC2CC(N(C)C)C(O)C(C)O2)c2c(cc3c(c2O)C(=O)c2c(O)cccc2C3=O)[C@@H]1C(=O)OC (stereo partly specified) | 90
C/C(CCl)=N/NC1=NC(c2ccccc2Cl)P(=O)(NCCCNP2(=O)SC(N/N=C(/C)CCl)=NC2c2ccccc2Cl)S1 (stereo unspecified) | 22
O=C(O)C1C2c3ccccc3C(c3ccccc32)C1C(=O)O (stereo unspecified) | -4

(Q) Request the reported growth inhibition associated with CS(=O)(=O)OCCN(CCOS(C)(=O)=O)c1ccc(C=O)cc1
(A) 53

(Q) And the next one, C[N+]1(CCCl)CC[N+](C)(CCCl)CC1 (stereo unspecified) ?
(A) 13

(Q) And the next one, CCOP(=S)(S)OCC.[Pd] ?
(A) 88

(Q) And the next one, O=C(O)CCCc1cc(I)c(N(CCCl)CCCl)c(I)c1 ?
(A) 85

(Q) And the next one, O=c1oc2ccccc2c(O)c1C(c1ccc2c(c1)Cc1ccccc1-2)c1c(O)c2ccccc2oc1=O ?
(A) 96

(Q) And the next one, Cc1cc[n+](C2=C(Nc3cccc(C(F)(F)F)c3)C(=O)c3ccccc3C2=O)cc1 ?
(A) 1

###

assay: NCI Yeast Anticancer Drug Screen. Data for the rad50EPP+ strain (AID 151);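 further: 0% = growth of vehicle-treated control cultures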; conditions: S. cerevisiae rad50 mutant strain, at 1.2 µM, active compounds read high
This is part of a sample that, as a whole, favours compounds with a hit. Of some 79,000 tested, about 15% had one in any assay.
Measured growth inhibition by item
Express your answer in %, writing the number without its unit.

Known results for molecules:
molecule | readout.value
O=C1C=C(CN(CCCl)CCCl)C(=O)C=C1CN(CCCl)CCCl | 1
c1c(N2CCOCC2)ssc1=[N+]1CCOCC1 | 1
C[C@@]12CCC(=O)C=C1CC[C@H]1C2=CC[C@]2(C)C1CC[C@@]2(C)O (some centres not stated) | -1

Query molecule follows.
(Q) Request the reported growth inhibition associated with Nc1ccccc1C(=O)OCCc1ccccc1
(A) -23

###

assay: NCI Yeast Anticancer Drug Screen. Data for the sgs1 mgt1 strain (AID 161);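 further: 0% = growth of cultures given vehicle only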; details: S. cerevisiae sgs1 mgt1 strain, at 50.0 µM (retest, dose inferred, filed as 5.0), active compounds read high
This is part of a sample that, as a whole, favours compounds with a hit. Of some 79,000 tested, about 15% had one in any assay. Activity calls are given as the source filed them. Cut-off read from the data, not from the text of the source: active = growth inhibition above about 70%; inactive = the rest.
property: growth inhibition

compound | readout.value
COc1cc(OC)c(OC)cc1/C=C/[N+](=O)[O-] | 85% (active)
CC/C(=C(/CC)c1ccc(OP(N)(=O)N(CCCl)CCCl)cc1)c1ccc(OP(N)(=O)N(CCCl)CCCl)cc1 (stereo unspecified) | 42% (inactive)
CCOC(=O)C1CC12c1ccccc1-c1ccccc12 (stereo unspecified) | 48% (inactive)
Cc1ccc2c(c1)SP(=S)(c1ccccc1)N2 (stereo unspecified) | 97% (active)
COC12[C@@H]3N[C@@H]3CN1C1=C(C(=O)C(NCCSSCCNC3=C(C)C(=O)C4=C(C3=O)C(COC(N)=O)[C@]3(OC)C5N[C@@H]5CN43)=C(C)C1=O)[C@@H]2COC(N)=O (stereo partly specified) | 74% (active)

Query compound follows.
(Q) Request the reported growth inhibition associated with c1ccc(N=c2nc(N3CCOCC3)ss2)cc1
(A) 100% (active)

###

Measured growth inhibition by item
assay: NCI Yeast Anticancer Drug Screen. Data for the rad18 strain (AID 177); details: S. cerevisiae rad18 mutant growth inhibition; at 1.2 µM; active compounds read high
This is part of a sample that, as a whole, favours compounds with a hit. Of some 79,000 tested, about 15% had one in any assay. The source made the active and inactive calls. Cut-off read from the data, not from the text of the source: active = growth inhibition above about 70%; inactive = the rest.

Known results for molecules:
molecule | growth inhibition
O=S(=O)(O)c1ccc(Cl)cc1.[Cd] | 0% (inactive)
CCOC(=O)C1=C(C(=O)OCC)C2(c3ccccc3)N(O1)c1ccccc1C2(C)C (stereo unspecified) | -4% (inactive)
O=C(O)C1C2CCC(C2)C1c1ccccc1 (stereo unspecified) | 0% (inactive)
OC(c1ccc(Br)cc1)C(Cl)(Cl)Cl (stereo unspecified) | 4% (inactive)
CC1CN=C(Nc2ccccc2)S1 (stereo unspecified) | -50% (inactive)

Query molecule follows.
(Q) Request the reported growth inhibition associated with Cc1c(N)nc([C@H](CC(N)=O)NC[C@H](N)C(N)=O)nc1C(=O)N[C@H](C(=O)N[C@H](C)[C@@H](O)[C@H](C)C(=O)N[C@H](C(=O)NCCc1nc(-c2nc(C(=O)NCCC[S+](C)C)cs2)cs1)[C@@H](C)O)C(OC1OC(CO)C(O)C(O)C1OC1OC(CO)C(O)C(OC(N)=O)C1O)c1cnc[nH]1 (stereo partly specified)
(A) 6% (inactive)

###

assay: NCI Yeast Anticancer Drug Screen. Data for the mec2-1 strain (AID 157); details: S. cerevisiae mec2-1 strain, at 5.0 µM (retest, dose inferred, filed as 0.5), active compounds read high
Compounds without any hit were thinned out: in the full panel of roughly 79,000, 15% have a hit.
property: growth inhibition (%)
Express your answer in %, writing the number without its unit.

compound | result.units | growth inhibition
COc1cc(Br)cc(/C=C(\C)[N+](=O)[O-])c1O | % | 7
O=C1NC(=O)C([N+](=O)[O-])C(=O)N1 | % | -14

(Q) Request the reported growth inhibition associated with O=c1c2ccccc2[se]n1-c1ccccc1
(A) -12

(Q) And the next one, CN1CC(Br)(Br)C(=O)N(C)C1=O ?
(A) 2

(Q) And the next one, CN(C)CC1CC2C3CC=C4CC(O)CCC4(C)C3CCC2(C)C1=O (centres undefined) ?
(A) -1

(Q) And the next one, Cc1ccc2nc3sc(=O)sc3nc2c1 ?
(A) -7

(Q) And the next one, [C-]#[O+].[C-]#[O+].[C-]#[O+].[CH3][Sn]([c]1ccccc1)[c]1ccccc1.[Co].c1ccc([PH+](c2ccccc2)c2ccccc2)cc1 ?
(A) 99

(Q) And the next one, CC(C)(C)c1cc([N+](=O)[O-])cc([N+](=O)[O-])c1O ?
(A) 66
